assayInfo: Metabolic stability in human liver microsomes assessed as retention time at […] measured after 5 mins by RP-HPLC
Type: ADME, Microsome
Reported Retention_time by item:

Solved entries (count: 3):
* CCC(CC)(C[125I])Cn1ccnc1[N+](=O)[O-] | 16.5 min
* O=C(O)[C@H]1O[C@@H](OCC(CO)(C[125I])Cn2ccnc2[N+](=O)[O-])[C@H](O)[C@@H](O)[C@@H]1O (stereo not given in full) | < 0.2 min
* O=[N+]([O-])c1nccn1CC(CO)(CO)C[125I] | < 0.2 min

Sample CCC(CO)(C[125I])Cn1ccnc1[N+](=O)[O-] (stereo not given) ; Retention_time observed: < 0.2 min

Sample CCC(C[125I])(CO[C@@H]1O[C@H](C(=O)O)[C@@H](O)[C@H](O)[C@H]1O)Cn1ccnc1[N+](=O)[O-] (stereo not given in full) ; Retention_time observed: < 0.2 min

* * *

assayInfo: Metabolic stability in human liver microsomes assessed as intact fractions at 0.3 MBq preincubated for 5 min measured by TLC analysis
Type: ADME, Microsome
conditionNotes: read-out: Stability
measure: remaining at 5 min, 0.3 MBq (%)
// units = %; emit number, no label

Sample O=[N+]([O-])c1nccn1CC(CO)(CO)C[211At] ; remaining at 5 min, 0.3 MBq observed: 96.9

* * *

assayInfo: Metabolic stability in mouse liver microsomes assessed as intact fractions at […] preincubated for 5 min measured by TLC followed by RP-HPLC
Assay type: ADME, Microsome
conditionNotes: read-out: Activity
measure: remaining at 5 min (%)

[1] CCC(CO)(C[125I])Cn1ccnc1[N+](=O)[O-] (stereo unspecified)
[2] CCC(CC)(C[125I])Cn1ccnc1[N+](=O)[O-]
Challenge: Out of 1 and 2 , name the one with the higher remaining at 5 min. Field: selected label. Fill in the label of the entry you choose.
Response given: 1
(1: 72%, 2: 2.2%)

* * *

assayInfo: Stability of compound in presence of GSH measured upto 24 hrs by TLC radiochromatogram
Format: physicochemical
measure: Stability

* CCC(CC)(C[125I])Cn1ccnc1[N+](=O)[O-] | Stable
* O=[N+]([O-])c1nccn1CC(CO)(CO)C[211At] | Stable
* CCC(CO)(C[125I])Cn1ccnc1[N+](=O)[O-] (centres undefined) | Stable
* O=[N+]([O-])c1nccn1CC(CO)(CO)C[125I] | Stable

* * *

assayInfo: Biodistribution in ICR mouse stomach at 7.4 kBq, iv upto 24 hrs
Type: ADME, organism-based
conditionNotes: in vivo
measure: Drug uptake

Solved entries (count: 5):
* O=C(NCCn1ccnc1[N+](=O)[O-])c1cccc([211At])c1 | Active
* CCC(CC)(C[125I])Cn1ccnc1[N+](=O)[O-] | Active
* O=[N+]([O-])c1nccn1CC(CO)(CO)C[125I] | Not Active
* CCC(CO)(C[125I])Cn1ccnc1[N+](=O)[O-] (stereo unspecified) | Not Active
* O=C(NCCn1ccnc1[N+](=O)[O-])c1cccc([125I])c1 | Not Active

Shifting focus to the compound that follows.
Sample O=[N+]([O-])c1nccn1CC(CO)(CO)C[211At] ; Drug uptake observed: Not Active

* * *

assayInfo: Metabolic stability in mouse liver microsomes assessed as retention time at […] measured after 5 mins by RP-HPLC
Assay type: ADME, Microsome
measure: Retention_time (min)

[a] CCC(CC)(C[125I])Cn1ccnc1[N+](=O)[O-]
[b] CCC(CO)(C[125I])Cn1ccnc1[N+](=O)[O-] (stereo not given)
Challenge: # min-compare on Retention_time between a and b Field: selected label. Fill in the label of the entry you choose.
Response given: b
(b: 23.5 min, a: 52.6 min)

Recorded values, source ChEMBL document CHEMBL5029172.
